Tested on: 415267-285-R-J2-PDC complex spheroid viability
protocol_summary: Anticancer human tumor 415267-285-R-J2-PDC patient-derived breast carcinoma cell line growth inhibition [POLQ]
study_conditions: curve of first compound; second compound 3.16 µM
pIC50: −log10 of the molar value.
Recorded measurements of pIC50, one per entry

1) CCc1c2c(nc3ccc(O)cc13)-c1cc3c(c(=O)n1C2)COC(=O)[C@]3(O)CC + Nc1ccc(C#CCN(C(=O)Cc2ncc(C(F)(F)F)cc2C(F)(F)F)c2ccc(F)cc2)nn1: > 8.50
2) C=CCn1c(=O)c2cnc(Nc3ccc(N4CCN(C)CC4)cc3)nc2n1-c1cccc(C(C)(C)O)n1 + Nc1ccc(C#CCN(C(=O)Cc2ncc(C(F)(F)F)cc2C(F)(F)F)c2ccc(F)cc2)nn1: 6.47
3) O=C(c1cc(Cc2n[nH]c(=O)c3ccccc23)ccc1F)N1CCN(C(=O)C2CC2)CC1 + Cc1cccc(N(C)C(=O)C2C(O)CCN2c2nc(C)cc(C(F)(F)F)c2C#N)c1: < 5.00
4) CCc1cc2c(N3CCc4c(cc(Cn5ccnc5)cc4-c4cn(C)nc4C(F)(F)F)C3=O)cc(C)nc2c(OC)n1 + Nc1ccc(C#CCN(C(=O)Cc2ncc(C(F)(F)F)cc2C(F)(F)F)c2ccc(F)cc2)nn1: < 5.00

Lab request: please report pIC50 under test system 415267-285-R-J2-PDC complex spheroid viability for C=CC(=O)N1CCN(c2nc(=O)n(-c3c(C)ccnc3C(C)C)c3nc(-c4c(O)cccc4F)c(F)cc23)C(C)C1 (stereo not given) + Nc1ccc(C#CCN(C(=O)Cc2ncc(C(F)(F)F)cc2C(F)(F)F)c2ccc(F)cc2)nn1
< 5.00

###

Recorded measurements of IC50, one per entry
Test system: 415267-285-R-J2-PDC complex spheroid viability
protocol_summary: Anticancer human tumor 415267-285-R-J2-PDC cell line growth inhibition [POLQ];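 also: spheroids exposed to compounds for one week before readout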
study_conditions: compound alone; run of 01/08/2024

1) COC1C(OC(N)=O)C(O)C(Oc2ccc3c(O)c(NC(=O)c4ccc(O)c(CC=C(C)C)c4)c(=O)oc3c2C)OC1(C)C (configuration not stated): > 10 µM

Next molecule, please.
Lab request: please report IC50 under test system 415267-285-R-J2-PDC complex spheroid viability for Cc1cccc(N(C)C(=O)C2C(O)CCN2c2nc(C)cc(C(F)(F)F)c2C#N)c1 (configuration not stated)
> 10 µM

###

Recorded measurements of viability, T/C, one per entry
Tested on: 415267-285-R-J2-PDC complex spheroid viability
protocol_summary: Anticancer human tumor 415267-285-R-J2-PDC cell line growth inhibition [POLQ];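 also: spheroids exposed to compounds for one week before readout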;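 as to viability, T/C: luminescence used as stand-in measure of viable cells; 100% = DMSO vehicle control viability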
study_conditions: second compound 1 µM; first compound 0.316 µM; stronger effect = lower value
Write the answer as a number in %, unit excluded.

As a guide, the following entries are already answered.
1) CCc1c2c(nc3ccc(O)cc13)-c1cc3c(c(=O)n1C2)COC(=O)[C@]3(O)CC + Cc1cccc(N(C)C(=O)C2C(O)CCN2c2nc(C)cc(C(F)(F)F)c2C#N)c1: 3.42
2) O=C(c1cc(Cc2n[nH]c(=O)c3ccccc23)ccc1F)N1CCN(C(=O)C2CC2)CC1 + COC1C(OC(N)=O)C(O)C(Oc2ccc3c(O)c(NC(=O)c4ccc(O)c(CC=C(C)C)c4)c(=O)oc3c2C)OC1(C)C: 96.8
3) CC1COCCN1c1cc(C2(O)CC3CCC(C2)O3)c2cnn(-c3ccn[nH]3)c2n1 (stereo not given) + Nc1ccc(C#CCN(C(=O)Cc2ncc(C(F)(F)F)cc2C(F)(F)F)c2ccc(F)cc2)nn1: 4.87
4) CC1COCCN1c1cc(C2(O)CC3CCC(C2)O3)c2cnn(-c3ccn[nH]3)c2n1 (stereo not given) + COC1C(OC(N)=O)C(O)C(Oc2ccc3c(O)c(NC(=O)c4ccc(O)c(CC=C(C)C)c4)c(=O)oc3c2C)OC1(C)C: 4.22

Next compound, please.
Which viability, T/C value is on record for COc1cccc2c1C(=O)c1c(O)c3c(c(O)c1C2=O)CC(O)(C(=O)CO)CC3OC1CC(N)C(O)C(C)O1 (stereo not given) + COC1C(OC(N)=O)C(O)C(Oc2ccc3c(O)c(NC(=O)c4ccc(O)c(CC=C(C)C)c4)c(=O)oc3c2C)OC1(C)C ?
5.43

###

Tested on: 415267-285-R-J2-PDC complex spheroid viability
protocol_summary: Anticancer human tumor 415267-285-R-J2-PDC cell line growth inhibition [POLQ];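 also: spheroids exposed to compounds for one week before readout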
study_conditions: curve of first compound; second compound 3.16 µM
endpoint_label: IC50

1) COc1cc2cc(C(=O)CCC(=O)O)sc2cc1OC + Nc1ccc(C#CCN(C(=O)Cc2ncc(C(F)(F)F)cc2C(F)(F)F)c2ccc(F)cc2)nn1: > 10000 nM
2) CCc1cc2c(N3CCc4c(cc(Cn5ccnc5)cc4-c4cn(C)nc4C(F)(F)F)C3=O)ccnc2c(OC)n1 + Cc1cccc(N(C)C(=O)C2C(O)CCN2c2nc(C)cc(C(F)(F)F)c2C#N)c1: > 10000 nM
3) CC[C@@]1(O)C(=O)OCc2c1cc1n(c2=O)Cc2cc3c(CN(C)C)c(O)ccc3nc2-1 + Cc1cccc(N(C)C(=O)C2C(O)CCN2c2nc(C)cc(C(F)(F)F)c2C#N)c1: 18.5 nM
4) CC(C)n1c(=O)n(C)c2cnc3cc(F)c(-c4ccc(OCCCN5CCCCC5)nc4)cc3c21 + Cc1cccc(N(C)C(=O)C2C(O)CCN2c2nc(C)cc(C(F)(F)F)c2C#N)c1: > 10000 nM
5) O=C(Nc1ccc(O)c(NS(=O)(=O)c2ccc(F)cc2)c1)c1ccc(-c2ccccc2)cc1 + Nc1ccc(C#CCN(C(=O)Cc2ncc(C(F)(F)F)cc2C(F)(F)F)c2ccc(F)cc2)nn1: > 10000 nM
6) COc1cccc(OCCCN)c1-c1cc(Nc2cnc(C#N)cn2)n[nH]1 + COC1C(OC(N)=O)C(O)C(Oc2ccc3c(O)c(NC(=O)c4ccc(O)c(CC=C(C)C)c4)c(=O)oc3c2C)OC1(C)C: 3.6 nM

Which IC50 value is on record for Nc1ccn(C2OC(CO)C(O)C2(F)F)c(=O)n1 (stereo not given) + Cc1cccc(N(C)C(=O)C2C(O)CCN2c2nc(C)cc(C(F)(F)F)c2C#N)c1 ?
< 31.6 nM

Which IC50 value is on record for CNCc1ccc(-c2[nH]c3cc(F)cc4c3c2CCNC4=O)cc1 + Cc1cccc(N(C)C(=O)C2C(O)CCN2c2nc(C)cc(C(F)(F)F)c2C#N)c1 ?
> 10000 nM

Which IC50 value is on record for COc1ccc([C@@H](O)c2cc(-c3ncnc4cc(N5CCOCC5)ccc34)c(F)cc2Cl)nn1 + Nc1ccc(C#CCN(C(=O)Cc2ncc(C(F)(F)F)cc2C(F)(F)F)c2ccc(F)cc2)nn1 ?
> 10000 nM

Which IC50 value is on record for COc1cc(C2c3cc4c(cc3C(OC3OC5COC(C)OC5C(O)C3O)C3COC(=O)C23)OCO4)cc(OC)c1O (stereo not given) + Cc1cccc(N(C)C(=O)C2C(O)CCN2c2nc(C)cc(C(F)(F)F)c2C#N)c1 ?
103 nM

Which IC50 value is on record for COc1cc(C2c3cc4c(cc3C(OC3OC5COC(C)OC5C(O)C3O)C3COC(=O)C23)OCO4)cc(OC)c1O (stereo not given) + COC1C(OC(N)=O)C(O)C(Oc2ccc3c(O)c(NC(=O)c4ccc(O)c(CC=C(C)C)c4)c(=O)oc3c2C)OC1(C)C ?
166 nM

Which IC50 value is on record for COc1cccc2c1C(=O)c1c(O)c3c(c(O)c1C2=O)CC(O)(C(=O)CO)CC3OC1CC(N)C(O)C(C)O1 (stereo not given) + Cc1cccc(N(C)C(=O)C2C(O)CCN2c2nc(C)cc(C(F)(F)F)c2C#N)c1 ?
< 31.6 nM

Which IC50 value is on record for CC1COCCN1c1cc(-c2ccnn2C)c2ccnc(-c3ccn[nH]3)c2n1 (stereo not given) + COC1C(OC(N)=O)C(O)C(Oc2ccc3c(O)c(NC(=O)c4ccc(O)c(CC=C(C)C)c4)c(=O)oc3c2C)OC1(C)C ?
35.4 nM

Which IC50 value is on record for C#Cc1c(F)ccc2cc(O)cc(-c3ncc4c(N5CC6CCC(C5)N6)nc(OCC56CCCN5CC(F)C6)nc4c3F)c12 (stereo not given) + Cc1cccc(N(C)C(=O)C2C(O)CCN2c2nc(C)cc(C(F)(F)F)c2C#N)c1 ?
> 10000 nM

Which IC50 value is on record for CCc1c2c(nc3ccc(O)cc13)-c1cc3c(c(=O)n1C2)COC(=O)[C@]3(O)CC + Cc1cccc(N(C)C(=O)C2C(O)CCN2c2nc(C)cc(C(F)(F)F)c2C#N)c1 ?
< 3.16 nM

Which IC50 value is on record for CCCS(=O)(=O)Nc1ccc(F)c(C(=O)c2c[nH]c3ncc(-c4ccc(Cl)cc4)cc23)c1F + COC1C(OC(N)=O)C(O)C(Oc2ccc3c(O)c(NC(=O)c4ccc(O)c(CC=C(C)C)c4)c(=O)oc3c2C)OC1(C)C ?
> 10000 nM

Which IC50 value is on record for CCc1cc2c(N3CCc4c(cc(Cn5ccnc5)cc4-c4cn(C)nc4C(F)(F)F)C3=O)cc(C)nc2c(OC)n1 + COC1C(OC(N)=O)C(O)C(Oc2ccc3c(O)c(NC(=O)c4ccc(O)c(CC=C(C)C)c4)c(=O)oc3c2C)OC1(C)C ?
> 10000 nM

Which IC50 value is on record for CC(=O)O[C@H]1C(=O)[C@@]2(C)[C@H]([C@H](OC(=O)c3ccccc3)[C@]3(O)C[C@H](OC(=O)[C@H](O)[C@@H](NC(=O)c4ccccc4)c4ccccc4)C(C)=C1C3(C)C)[C@]1(OC(C)=O)CO[C@@H]1C[C@@H]2O + Cc1cccc(N(C)C(=O)C2C(O)CCN2c2nc(C)cc(C(F)(F)F)c2C#N)c1 ?
< 9.49 nM

Which IC50 value is on record for CC[C@@]1(O)C(=O)OCc2c1cc1n(c2=O)Cc2cc3c(CN(C)C)c(O)ccc3nc2-1 + Nc1ccc(C#CCN(C(=O)Cc2ncc(C(F)(F)F)cc2C(F)(F)F)c2ccc(F)cc2)nn1 ?
22.5 nM

Which IC50 value is on record for COc1cc(C2c3cc4c(cc3C(OC3OC5COC(C)OC5C(O)C3O)C3COC(=O)C23)OCO4)cc(OC)c1O (stereo not given) + Nc1ccc(C#CCN(C(=O)Cc2ncc(C(F)(F)F)cc2C(F)(F)F)c2ccc(F)cc2)nn1 ?
175 nM

The measured values listed here are drawn from PubChem BioAssay AID1963847.
